# Tested on: MDA-MB-361.1
# experiment-summary: In vitro cell proliferation assay (CellTiter-Glo), MDA-MB-361.1
# Assay type: cell-based
# test-conditions: Cell line: MDA-MB-361.1; Tissue type: breast; Mutation Status: PI3K; read-out: EC50 (μmole)
pEC50: −log10 of the molar value.
Would you mind labelling by pEC50? At or over 6 is TRUE, under is FALSE.

compound="CC1(C)OCCn2c1nc1c(N3CCOCC3)nc(-c3ccc(N)cn3)nc12 [Compound 138]" label=FALSE

Query block: Decide: pEC50 of Nc1ncc(-c2nc(N3CCOCC3)c3nc4n(c3n2)CCO[C@H]4C(F)(F)F)cn1 [Compound 139] >= 6?
Result block: TRUE

Query block: Is it the case that Nc1ncc(-c2nc(N3CCOCC3)c3c(n2)N2CCC[C@H]2CO3)cn1 [Compound 122] has pEC50 reaching or exceeding 6?
Result block: FALSE

Query block: Is it the case that CC1(C)OCCc2c1sc1c(N3CCOCC3)nc(-c3cnc(N)nc3)nc21 [Compound 168] has pEC50 reaching or exceeding 6?
Result block: TRUE

Query block: Hi, just wondering whether CCNC(=O)Nc1ccc(-c2nc(N3CCOCC3)c3c(n2)C2(C)CCOC2N3C)cc1 (centres unmarked) [Compound 101] shows pEC50 of 6 or higher.
Result block: TRUE

Query block: Entry C[C@@H]1CN(c2nc(-c3cnc(N)nc3)nc3c2nc2n3CCOC2(C)C)C[C@H](C)O1 [Compound 171] : is its pEC50 no less than 6?
Result block: FALSE

Query block: // inclusive: pEC50 at least 6? input: Cc1nc(N)ncc1-c1nc(N2CCOCC2)c2nc3n(c2n1)CCOC3(C)C [Compound 102]
Result block: TRUE

Query block: Hi team, for CC1(C)OCCn2c1cc1c(N3CCOCC3)nc(-c3cnc(N)nc3)nc12 [Compound 177] , is the recorded pEC50 at or above 6?
Result block: TRUE

Query block: Dear colleague, could you confirm whether FC(F)(F)C1OCCn2c1nc1c(N3CCOCC3)nc(-c3cccc4[nH]ncc34)nc12 (centres unmarked) [Compound 169] has pEC50 at or above 6?
Result block: FALSE

Query block: Reported pEC50 reaches at least 6 for CN(C)c1cnc(-c2nc(N3CCOCC3)c3nc4n(c3n2)CCOC4(C)C)cn1 [Compound 163] ?
Result block: FALSE

Query block: Is the recorded value of pEC50 equal to or greater than 6 for this compound? CC1(C)OCCn2c1nc1c(N3C[C@@H]4C[C@H]3CO4)nc(-c3cnc(N)nc3)nc12 [Compound 174]
Result block: FALSE

Query block: Decide: is the reported value of pEC50 for CC(C)Cn1cc(-c2nc(N3CCOCC3)c3nc4n(c3n2)CCOC4(C)C)cn1 [Compound 148] equal to or greater than 6?
Result block: FALSE

Data origin, for the record: patent US8883799B2
